Entries annotated with measured Selectivity Ratio MC4R/MC3R (of EC-50 values)
Biological target: melanocortin 3 receptor (human, UniProt P41968 1-323)
Sequence (P41968 whole entry): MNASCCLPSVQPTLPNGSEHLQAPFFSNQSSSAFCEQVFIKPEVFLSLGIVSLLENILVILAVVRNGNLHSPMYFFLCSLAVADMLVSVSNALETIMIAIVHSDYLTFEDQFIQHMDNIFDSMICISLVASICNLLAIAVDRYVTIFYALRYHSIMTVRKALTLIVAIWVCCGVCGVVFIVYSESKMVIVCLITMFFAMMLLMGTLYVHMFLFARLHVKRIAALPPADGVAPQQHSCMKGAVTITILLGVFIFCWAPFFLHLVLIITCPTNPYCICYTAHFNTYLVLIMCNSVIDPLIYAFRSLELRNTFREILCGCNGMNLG
Assay: cell-based or functional assay
Bridges are numbered along the chain shown (N, C = ends). [ ]: non-standard residue; d: D form. Pen = CC(C)(S)[C@H](N)C(=O)O; hCys = N[C@@H](CCS)C(=O)O

Look up Selectivity Ratio MC4R/MC3R (of EC-50 values) for this binder: Ac-R[hCys]S[dF]RW[Pen]-NH2 (disulfide 2-7; SMILES CC(=O)N[C@@H](CCCNC(=N)N)C(=O)N[C@H]1CCSSC(C)(C)[C@@H](C(N)=O)NC(=O)[C@H](Cc2c[nH]c3ccccc23)NC(=O)[C@H](CCCNC(=N)N)NC(=O)[C@@H](Cc2ccccc2)NC(=O)[C@H](CO)NC1=O) [001556C, Ac-Arg-(hCys-Ser-D-Phe-Arg-Trp-Pen)-NH2]
> 1620

What value of Selectivity Ratio MC4R/MC3R (of EC-50 values) has been reported for the following binder? Ac-R[hCys]N[dF]RW[Pen]-NH2 (disulfide 2-7) [001554C, Ac-Arg-(hCys-Asn-D-Phe-Arg-Trp-Pen)-NH2]
> 1870

Now consider the entry below.
Can you look up the measured Selectivity Ratio MC4R/MC3R (of EC-50 values) of Ac-R[hCys]T[dF]RW[Pen]-NH2 (disulfide 2-7; SMILES CC(=O)N[C@@H](CCCNC(=N)N)C(=O)N[C@H]1CCSSC(C)(C)[C@@H](C(N)=O)NC(=O)[C@H](Cc2c[nH]c3ccccc23)NC(=O)[C@H](CCCNC(=N)N)NC(=O)[C@@H](Cc2ccccc2)NC(=O)[C@H]([C@@H](C)O)NC1=O) [001574C, Ac-Arg-(hCys-Thr-D-Phe-Arg-Trp-Pen)-NH2] for me?
> 2710

// data source = patent US20220226425A1
